- subject_of_test: human PAD4 (Homo sapiens, UniProt Q9UM07)
- Construct: human PAD4 (NM_012387), A2P663, was PCR amplified; His-SUMO (N, cleaved yes)
- Sequence (Q9UM07 2-663): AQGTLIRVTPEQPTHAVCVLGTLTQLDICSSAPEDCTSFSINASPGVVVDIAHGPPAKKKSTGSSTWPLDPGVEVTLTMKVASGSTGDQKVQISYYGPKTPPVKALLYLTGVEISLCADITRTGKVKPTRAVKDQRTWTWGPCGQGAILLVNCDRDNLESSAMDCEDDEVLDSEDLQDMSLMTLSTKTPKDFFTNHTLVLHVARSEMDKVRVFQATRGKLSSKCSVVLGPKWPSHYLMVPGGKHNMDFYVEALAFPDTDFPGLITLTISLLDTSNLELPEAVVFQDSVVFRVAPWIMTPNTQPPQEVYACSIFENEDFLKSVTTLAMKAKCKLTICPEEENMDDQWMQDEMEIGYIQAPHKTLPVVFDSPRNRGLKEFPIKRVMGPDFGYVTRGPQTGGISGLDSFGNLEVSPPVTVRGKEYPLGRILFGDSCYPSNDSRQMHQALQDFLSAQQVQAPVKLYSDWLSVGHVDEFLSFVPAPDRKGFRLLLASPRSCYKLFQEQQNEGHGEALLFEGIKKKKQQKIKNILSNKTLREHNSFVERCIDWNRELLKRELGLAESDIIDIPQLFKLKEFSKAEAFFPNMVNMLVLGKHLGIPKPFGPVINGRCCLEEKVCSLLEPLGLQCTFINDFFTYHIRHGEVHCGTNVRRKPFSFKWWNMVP
- experiment_notes: In vitro PAD4 BAEE biochemical assay
- run_parameters: human PAD4, BAEE substrate; 5 nM PAD4, 2 mM calcium chloride, 3 mM BAEE; geometric mean of multiple experiments
pIC50: −log10 of the molar value.
measured_attribute: pIC50

(P) COc1cc(C(=O)N2C[C@H](N)CC[C@@H]2C)cc2nc(-c3cc4ccc(C#N)nc4n3CC3CC3)c(C)n12 [Example 610]
(Q) COc1cc(C(=O)N2[C@H]3CC[C@@H]2[C@H](N)C3)cc2nc(-c3cc4ccc([C@@H](C)NC(=O)N(C)c5ccccc5)nc4n3CC3CC3)c(C)n12 [Example 242]
(R) [2H]C([2H])([2H])N(c1ccc2cc(-c3nc4cc(C(=O)N5C[C@H]6CC[C@@H]5[C@@H]6N)cc(OC)n4c3C)n(CC3CC3)c2n1)S(=O)(=O)Cc1ccccc1 [Example 471]
Request: In a descending ranking, list each entry from above by its pIC50, from the largest value down to the smallest. Reply format: the labels, ordered as requested.
Result: Q, R, P
(Q: 6.62, R: 5.87, P: 5.33)
